Test system: HCC-2998 colon
assay method text: NCI-60 one-dose screen, 48 h
particulars: 10 µM unless noted
This is part of a sample that, as a whole, favours compounds with a hit. Of some 83,000 tested, about 20% had one in any assay. Activity calls are given as the source filed them. Rule for the calls: active = growth percent below 10; inactive = the rest.
Possible outcomes: active, inactive

| molecule | assayed system | discrete label |
| --- | --- | --- |
| CCc1ccc2nc(NC(=O)Cc3csc(NC(=O)c4ccco4)n3)sc2c1 | HCC-2998 colon | inactive |
| CNC(=O)c1cc(-n2ccc3cc(NC(=O)c4ccc(N5CCOCC5)c(C(F)(F)F)c4)ccc32)ccn1 | HCC-2998 colon | inactive |
| Fc1cc(-c2nnc3n2NC(=Nc2ccc(Cl)cc2)CS3)c(Cl)cc1Cl | HCC-2998 colon | inactive |
| Cc1cccc(OCC(O)CN2CCN(c3ccc(Cl)cc3)CC2)c1 (centres undefined) | HCC-2998 colon | inactive |
| CC(=O)OC[C@H]1OC(Sc2sc(C(=O)c3ccc(C)cc3)c(N)c2-c2nc3ccccc3s2)[C@H](OC(C)=O)[C@@H](OC(C)=O)[C@@H]1OC(C)=O (some centres undefined) | HCC-2998 colon | inactive |
| N#Cc1cccc(NC(=O)c2cc(-c3ccc(F)cc3F)ccc2O)c1 | HCC-2998 colon | inactive |
| NS(=O)(=O)c1ccc(-n2nc(C(=O)N/N=C\c3ccc(F)cc3)cc2-c2ccc(Br)cc2)cc1 | HCC-2998 colon | inactive |
| Cc1cccc(NC2=C(Cl)C(=O)c3nc(C)ccc3C2=O)c1 | HCC-2998 colon | active |
| CCOC(=O)c1sc2ncc(-c3ccc(OC)cc3)n2c1C | HCC-2998 colon | inactive |

###

System: U251 CNS
assay method text: NCI-60 one-dose screen, 48 h
particulars: 10 µM unless noted
Compounds without any hit were thinned out: in the full panel of roughly 83,000, 20% have a hit. Calls of active or inactive are those of the source. Rule for the calls: active = growth percent below 10; inactive = the rest.
Possible outcomes: t for active, f for inactive

| molecule | discrete label |
| --- | --- |
| CCCCNC(=O)Oc1ccc(/C(=C(\C)c2ccc(Cl)cc2)c2ccc(OCCN(CC)CC)cc2)cc1 | f |
| O=c1c2cc(F)ccc2sc2c(NCCO)nc3ccccc3c12 | f |
| N#C/C(=C\c1cccc2cnccc12)n1nnc2cccc(F)c21 | f |
| O=c1c2cc(F)ccc2sc2c(N3CCNCC3)nc3ccc(F)cc3c12 | t |
| COc1cc(-c2nc3sccn3c2-c2ccnc(NCCCNS(=O)(=O)c3ccc(F)cc3)n2)ccc1F | f |
| O=c1c2cc(F)ccc2sc2c(NCCCNCCO)nc3ccc(F)cc3c12 | f |
| COc1cc(C2CC(c3ccc(SC)cc3)=NN2C(C)=O)cc(OC)c1OC (centres undefined) | f |
| COC(=O)c1ccc2[nH]c(O)c(C(=Nc3ccc(N(C)C(=O)CN4CCN(C)CC4)cc3)c3ccccc3)c2c1 | f |
| C=C1C(=O)O[C@H]2[C@H]1CC/C(COC(=O)CCSSCCC(=O)OC/C1=C/CC[C@@]3(C)O[C@H]3[C@H]3OC(=O)C(=C)[C@@H]3CC1)=C\CC[C@@]1(C)O[C@@H]21 | t |
| CCc1ccc(Oc2c(-c3ccc(OCCc4cccc(C(F)(F)F)c4)cc3O)n[nH]c2C(F)(F)F)cc1 | f |
| C[C@H]1[C@H]2[C@H]3CC[C@@H]4[C@@]5(C)CC[C@H](O)C(C)(C)[C@@H]5CC[C@@]4(C)[C@]3(C)CC[C@]23CO[C@]1(C)[C@@H](C(=O)/C=C\c1cccnc1)C3 | f |
| Cc1nc2ccccc2n1-c1ncnc2c1CC(C)c1ccccc1N2C (centres undefined) | f |
| O=C(O)CCC/C=C\C[C@H]1C=CC(=O)/C1=C/C[C@@H](O)CCc1cccc(C(F)(F)F)c1 | t |
| CNc1ccc(Nc2cccc(C)c2)c2c1C(=O)c1ccccc1C2=O | f |
| Oc1ccc(Cl)cc1Cc1cc(Cl)cc(Cl)c1O | f |
| Nc1nn(C(=O)Nc2ccc(Cc3ccccc3)cc2)c2ccc(Cl)cc12 | f |
| Cc1ccc(-c2nc(N3CCN(C(=O)c4ccc(OC(F)(F)F)cc4)CC3)c3ccccc3n2)cc1 | f |
| Cc1nc2cnc(N)c(C#Cc3cncc(C(=O)Nc4ccc(CN5CCN(C)CC5)c(C(F)(F)F)c4)c3)c2nc1C | f |
| COc1cccc2nc3n(c12)C(c1c(F)cccc1F)SC3 (centres undefined) | f |
| CCOC(=O)C1=C(N)Oc2c(sc3c(C)cccc23)C1c1ccc(OC)cc1 (centres undefined) | f |
| CCCCCCN(CCCCCC)c1ccc(/C=C2/SC(=O)NC2=O)c(C)c1 | f |
| CNC(=O)c1[nH]cc(-c2ccccc2)c1-c1cc(OC)c2c(c1OC)OCO2 | f |
| COc1cc(/C=C2\C(=O)Nc3ccc(Br)cc32)cc(OC)c1OC | f |
| c1ccc(OCc2nnc(-c3ccc(Oc4ccccc4)cc3)o2)cc1 | f |
| CN1CCN(Cc2ccc(NC(=O)c3ccc(C(C)(C)C)c(C#Cc4cnc5cccnn45)c3)cc2C(F)(F)F)CC1 | t |
| Cc1cc2[nH]c(=O)c3c4ncccc4cn3c2cc1C | f |
| N#Cc1c(Nc2cccc(Cl)c2)sc(C(=O)c2cc3cc(Cl)ccc3o2)c1N | f |
| COC(=O)Nc1ccc(-c2nc(-c3cccc(OC)c3)c(-c3ccnc(Br)c3)[nH]2)cc1 | f |
| CCCCCCCCCCCCCCCCCCOc1ccc(CC(=O)OCC[N+](C)(C)C)cc1 | f |
| COc1cc2oc(-c3ccc(O)cc3)cc(=O)c2c(O)c1-c1c(OC)cc(O)c2c(=O)cc(-c3ccc(O)cc3)oc12 | f |
| NC(=O)C1(Nc2ccc(Br)cc2)CCCC1 | f |
| O=C1c2ccccc2NC(n2sc3ccccc3c2=O)N1c1ccccc1 (centres undefined) | f |
| c1ccc(CO[C@H]2CO[C@H]3[C@@H]2OC[C@@H]3Oc2ccc(Nc3ncnc4ccsc34)cc2)cc1 | f |
| COc1cccc(-c2nc(-c3ccc(NC(=O)OC(C)C)cc3)[nH]c2-c2ccnc(Br)c2)c1 | f |
| CN(C)CCNc1nc2ccccc2c2c(=O)c3cc(F)ccc3sc12 | f |
| Cc1ccccc1C(=O)NN | f |
| CCOC(=O)c1[nH]c(C)c(C(=O)OCc2ccccc2C#N)c1C | f |
| COc1cc(CCCO)c(OC)c(OC)c1OC | f |
| NS(=O)(=O)c1ccc(-n2nc(-c3ccc(Cl)cc3)c3ccccc3c2=O)cc1 | f |

###

Tested on: MDA-MB-231 breast
assay method text: NCI-60 one-dose screen, 48 h (100 = growth as untreated, 0 = no growth, -100 = all killed)
particulars: 10 µM unless noted
About 83,000 compounds went through this panel and 20% of them were active in at least one assay; those are over-represented in the sample as a whole.
Mark Yes only for growth values smaller than 70%; exact matches and larger values are No.

| molecule | discrete label |
| --- | --- |
| CCOC(=O)/C=C1\S/C(=N\Nc2ccc([N+](=O)[O-])cc2[N+](=O)[O-])N(Cc2ccccc2)C1=O | No |
| COc1ccc(C2NC(=O)C(C#N)c3c2sc2c(F)cccc32)c(OC)c1 (stereo not given) | No |
| Cc1ccc(-c2nc(N3CCN(CC(=O)Nc4ccc(Cl)c(C(F)(F)F)c4)CC3)c3ccccc3n2)cc1 | No |
| Cc1ccc(-c2nc3c(c(-c4ccccc4)nn3-c3ccccc3)c(-c3ccc(O)cc3)c2C#N)cc1 | Yes |
| O=C(Oc1cccc2ccccc12)Oc1cccc2ccccc12 | No |
| CNCCCC12CCC(c3ccccc31)c1ccccc12 | No |
| O=C(Cc1ccc(F)c(Cl)c1)Nc1cc(C2(C(F)(F)F)CC2)nn1Cc1ccccc1 | Yes |
| CN(C)CC#Cc1ccc2ncc(C#N)c(Nc3ccc(F)c(Cl)c3)c2c1 | Yes |
| CCOC(=O)Cn1c(C)c(/C=N/NC(=O)c2cc3c(ccc4ccccc43)o2)c2ccccc21 | Yes |
| CCOC(=O)c1[nH]c(C)c(C(=O)OCc2ccccc2C#N)c1C | No |

###

System: EKVX NSCLC
assay method text: NCI-60 one-dose screen, 48 h (100 = growth as untreated, 0 = no growth, -100 = all killed)
particulars: 10 µM unless noted
About 83,000 compounds went through this panel and 20% of them were active in at least one assay; those are over-represented in the sample as a whole.
Mark 1 only for growth values smaller than 70%; exact matches and larger values are 0.

| molecule | discrete label |
| --- | --- |
| COc1ccc(C(=O)COC(=O)[C@H](C[Se][Se]C[C@H](NC(=O)c2ccc(Br)cc2F)C(=O)OCC(=O)c2ccc(OC)cc2)NC(=O)c2ccc(Br)cc2F)cc1 | 1 |
| Cc1ccc(/C=N\NC(=O)c2[nH]c3ccc(F)cc3c2-c2ccccc2)cc1 | 1 |
| CN1C(=C2C(=O)OC(C)(C)OC2=O)CCC1C(=O)NCc1ccc(Cl)cc1Cl (centres undefined) | 0 |
| O=C(O)c1cn(C2CC2)c2cc(N3CCN(C(=O)Nc4nc(-c5ccccc5)cs4)CC3)c(F)cc2c1=O | 1 |
| O=c1c2cc(F)ccc2sc2c(N3CCCCC3)nc3ccccc3c12 | 0 |
| Cc1ccc(-c2nc(N3CCN(CC(=O)Nc4ccc(Cl)c(C(F)(F)F)c4)CC3)c3ccccc3n2)cc1 | 0 |
| CCOC(=O)CC1C(COC(=O)NC)OC(n2cnc3c(NC(=O)Nc4ccccc4)ncnc32)C1O[Si](C)(C)C(C)(C)C (centres undefined) | 1 |
| CCOC(=O)c1sc2ncc(-c3ccc(OC)cc3)n2c1C | 0 |
| CCCCOc1ccc(/C=N/NC(N)=S)cc1 | 0 |

Source listed as PubChem BioAssay (NCI).
